pIC50: −log10 of the molar value.
Assay system Cytochrome P450 2C9 (Homo sapiens, UniProt P11712); read-out recorded as pIC50.

{"compound.structure.string": "Cl.O=C(N1CCN2CCC1CC2)n1nc(-n2cc(C(F)(F)F)cn2)c2c1COCC2", "study.target": "Cytochrome P450 2C9 (Homo sapiens, UniProt P11712)", "pIC50": "< 4.30"}
{"compound.structure.string": "O=C(N1CCN2CCC1CC2)n1nc(-c2ccc(F)cc2)c2c1COCC2", "study.target": "Cytochrome P450 2C9 (Homo sapiens, UniProt P11712)", "pIC50": "< 4.30"}

====

clearance reference
Assay: Clearance in dog
Assay type: ADME, Canis lupus familiaris
Conditions: in vivo

{"compound.structure.string": "O=C(N1CCN2CCC1CC2)n1nc(-c2ccc(F)cc2)c2c1COCC2", "unit.symbol": "mL/min/kg", "clearance": 30}
{"compound.structure.string": "Cl.O=C(N1CCN2CCC1CC2)n1nc(-n2cc(C(F)(F)F)cn2)c2c1COCC2", "unit.symbol": "mL/min/kg", "clearance": 12}

====

Assay: Bioavailability in rat
Format: ADME, organism-based
Settings: in vivo
Parameter: bioavailability. Scope: all listed entries.

{"compound.structure.string": "Cl.O=C(N1CCN2CCC1CC2)n1nc(-n2cc(C(F)(F)F)cn2)c2c1COCC2", "unit.symbol": "%", "bioavailability": 95}
{"compound.structure.string": "O=C(N1CCN2CCC1CC2)n1nc(-c2ccc(F)cc2)c2c1COCC2", "unit.symbol": "%", "bioavailability": 73}

====

Test: Clearance in rat
Format: ADME
Details: in vivo
The following molecules are shown together with reported clearance values.

{"compound.structure.string": "Cl.O=C(N1CCN2CCC1CC2)n1nc(-n2cc(C(F)(F)F)cn2)c2c1COCC2", "unit.symbol": "mL/min/kg", "clearance": 6.1}
{"compound.structure.string": "O=C(N1CCN2CCC1CC2)n1nc(-c2ccc(F)cc2)c2c1COCC2", "unit.symbol": "mL/min/kg", "clearance": 8.5}

====

Test: Intrinsic clearance in rat at 5 to 10 mg/kg, po or 0.05 to 2 mg/kg, iv
Format: ADME, organism-based
Conditions: in vivo, dose 5-10 mg/kg

{"compound.structure.string": "O=C(N1CCN2CCC1CC2)n1nc(-n2cc(C(F)(F)F)cn2)c2c1[C@H]1C[C@H]1C2", "CL [mL/min/kg]": 85}
{"compound.structure.string": "CC1(C)Cc2c(c(-c3ccc(F)cc3)nn2C(=O)N2CCN3CCC2CC3)CO1", "CL [mL/min/kg]": 180}
{"compound.structure.string": "O=C(N1CCN2CCC1CC2)n1nc(-n2cc(Cl)cn2)c2c1COCC2", "CL [mL/min/kg]": 120}
{"compound.structure.string": "Cl.O=C(N1CCN2CCC1CC2)n1nc(-n2cc(C(F)(F)F)cn2)c2c1COCC2", "CL [mL/min/kg]": 55}
{"compound.structure.string": "COc1ccc(-c2nn(C(=O)N3CCN4CCC3CC4)c3c2CCOC3)cc1", "CL [mL/min/kg]": 3510}

====

Target: mouse BCRP (ABCG2) (Mus musculus, UniProt Q7TMS5)
Sequence (Q7TMS5 whole entry): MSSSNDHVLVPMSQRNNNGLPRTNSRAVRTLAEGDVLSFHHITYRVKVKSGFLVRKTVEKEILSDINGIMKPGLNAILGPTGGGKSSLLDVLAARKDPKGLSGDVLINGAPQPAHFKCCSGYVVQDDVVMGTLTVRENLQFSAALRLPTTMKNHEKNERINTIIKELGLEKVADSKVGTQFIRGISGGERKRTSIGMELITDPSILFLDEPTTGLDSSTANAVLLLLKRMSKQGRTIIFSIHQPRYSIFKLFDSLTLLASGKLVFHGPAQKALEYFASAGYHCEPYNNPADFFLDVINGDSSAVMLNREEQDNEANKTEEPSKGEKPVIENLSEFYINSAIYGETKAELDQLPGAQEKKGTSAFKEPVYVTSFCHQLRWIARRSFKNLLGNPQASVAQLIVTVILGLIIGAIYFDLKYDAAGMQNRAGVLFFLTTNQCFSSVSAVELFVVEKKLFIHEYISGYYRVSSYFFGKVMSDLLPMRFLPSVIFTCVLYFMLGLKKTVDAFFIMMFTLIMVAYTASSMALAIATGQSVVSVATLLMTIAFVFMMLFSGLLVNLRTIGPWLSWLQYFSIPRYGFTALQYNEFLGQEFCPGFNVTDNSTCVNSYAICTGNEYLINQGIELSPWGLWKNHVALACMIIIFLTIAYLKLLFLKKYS
Test: Substrate activity at mouse BCRP assessed as efflux ratio at 1 uM
Assay type: ADME
Conditions: not told
Listed here: items and their measured efflux ratio at 1 µM.

{"compound.structure.string": "Cl.O=C(N1CCN2CCC1CC2)n1nc(-n2cc(C(F)(F)F)cn2)c2c1COCC2", "efflux ratio at 1 µM": 1.3}
{"compound.structure.string": "O=C(N1CCN2CCC1CC2)n1nc(-n2cc(C(F)(F)F)cn2)c2c1CCC2", "efflux ratio at 1 µM": 0.8}
{"compound.structure.string": "O=C(N1CCN2CCC1CC2)n1nc(-c2ccc(C(F)(F)F)cc2)c2c1COCC2", "efflux ratio at 1 µM": 1.2}
{"compound.structure.string": "CC1(C)Cc2c(c(-c3ccc(F)cc3)nn2C(=O)N2CCN3CCC2CC3)CO1", "efflux ratio at 1 µM": 0.9}
{"compound.structure.string": "O=C(N1CCN2CCC1CC2)n1nc(-n2cc(Cl)cn2)c2c1COCC2", "efflux ratio at 1 µM": 1.4}
{"compound.structure.string": "O=C(N1CCN2CCC1CC2)n1nc(-n2cc(C(F)(F)F)cn2)c2c1[C@H]1C[C@H]1C2", "efflux ratio at 1 µM": 0.8}
{"compound.structure.string": "O=C(N1CCN2CCC1CC2)n1nc(-c2ccc(F)cc2)c2c1COCC2", "efflux ratio at 1 µM": 1.4}
{"compound.structure.string": "COc1ccc(-c2nn(C(=O)N3CCN4CCC3CC4)c3c2CCOC3)cc1", "efflux ratio at 1 µM": 1.4}
{"compound.structure.string": "O=C(N1CCN2CCC1CC2)n1nc(-n2cc(C(F)(F)F)cn2)c2c1CCOC2", "efflux ratio at 1 µM": 1.2}

====

Experiment: Half life in rat
Type: ADME
Conditions: in vivo

{"compound.structure.string": "O=C(N1CCN2CCC1CC2)n1nc(-c2ccc(F)cc2)c2c1COCC2", "half-life, h": 2.8}
{"compound.structure.string": "Cl.O=C(N1CCN2CCC1CC2)n1nc(-n2cc(C(F)(F)F)cn2)c2c1COCC2", "half-life, h": 3.4}

====

Experiment: Intrinsic clearance in rat at 5 to 10 mg/kg, po or 0.05 to 2 mg/kg, iv
Format: ADME, organism-based
Conditions: in vivo, dose 5-10 mg/kg

{"compound.structure.string": "O=C(N1CCN2CCC1CC2)n1nc(-c2ccc(F)cc2)c2c1COCC2", "CL, mL/min/kg": 90}
{"compound.structure.string": "O=C(N1CCN2CCC1CC2)n1nc(-n2cc(C(F)(F)F)cn2)c2c1CCOC2", "CL, mL/min/kg": 39}
{"compound.structure.string": "O=C(N1CCN2CCC1CC2)n1nc(-c2ccc(C(F)(F)F)cc2)c2c1COCC2", "CL, mL/min/kg": 610}
{"compound.structure.string": "O=C(N1CCN2CCC1CC2)n1nc(-n2cc(C(F)(F)F)cn2)c2c1CCC2", "CL, mL/min/kg": 89}

====

Test system: rat P-gp
Assay: Substrate activity at rat P-gp assessed as efflux ratio at 1 uM
Format: ADME
Conditions: not told
Note to self: values exactly at 3 are True. So efflux ratio at 1 µM at or above 3 is True, below is False.

{"compound.structure.string": "O=C(N1CCN2CCC1CC2)n1nc(-n2cc(C(F)(F)F)cn2)c2c1CCOC2", "assigned.category": "False"}
{"compound.structure.string": "COc1ccc(-n2nc(C(=O)N3CCCN(C)CC3)c3c2CCOC3)cc1", "assigned.category": "True"}
{"compound.structure.string": "COc1ccc(-c2nn(C(=O)N3CCN4CCC3CC4)c3c2CCOC3)cc1", "assigned.category": "True"}
{"compound.structure.string": "O=C(N1CCN2CCC1CC2)n1nc(-c2ccc(F)cc2)c2c1COCC2", "assigned.category": "True"}
{"compound.structure.string": "O=C(N1CCN2CCC1CC2)n1nc(-c2ccc(C(F)(F)F)cc2)c2c1COCC2", "assigned.category": "True"}
{"compound.structure.string": "O=C(N1CCN2CCC1CC2)n1nc(-n2cc(C(F)(F)F)cn2)c2c1[C@H]1C[C@H]1C2", "assigned.category": "False"}
{"compound.structure.string": "Cl.O=C(N1CCN2CCC1CC2)n1nc(-n2cc(C(F)(F)F)cn2)c2c1COCC2", "assigned.category": "True"}
{"compound.structure.string": "O=C(N1CCN2CCC1CC2)n1nc(-n2cc(Cl)cn2)c2c1COCC2", "assigned.category": "True"}
{"compound.structure.string": "CC1(C)Cc2c(c(-c3ccc(F)cc3)nn2C(=O)N2CCN3CCC2CC3)CO1", "assigned.category": "True"}
{"compound.structure.string": "O=C(N1CCN2CCC1CC2)n1nc(-n2cc(C(F)(F)F)cn2)c2c1CCC2", "assigned.category": "False"}
{"compound.structure.string": "O=C(c1nn(-c2ccc(F)c(Cl)c2)c2c1COCC2)N1CCN2CCC1CC2", "assigned.category": "True"}
{"compound.structure.string": "O=C(N1CCN2CCC1CC2)n1nc(-c2ccc(F)c(Cl)c2)c2c1COCC2", "assigned.category": "False"}

====

Target: Muscarinic acetylcholine receptor M5 (Homo sapiens)
Sequence (P08912 whole entry): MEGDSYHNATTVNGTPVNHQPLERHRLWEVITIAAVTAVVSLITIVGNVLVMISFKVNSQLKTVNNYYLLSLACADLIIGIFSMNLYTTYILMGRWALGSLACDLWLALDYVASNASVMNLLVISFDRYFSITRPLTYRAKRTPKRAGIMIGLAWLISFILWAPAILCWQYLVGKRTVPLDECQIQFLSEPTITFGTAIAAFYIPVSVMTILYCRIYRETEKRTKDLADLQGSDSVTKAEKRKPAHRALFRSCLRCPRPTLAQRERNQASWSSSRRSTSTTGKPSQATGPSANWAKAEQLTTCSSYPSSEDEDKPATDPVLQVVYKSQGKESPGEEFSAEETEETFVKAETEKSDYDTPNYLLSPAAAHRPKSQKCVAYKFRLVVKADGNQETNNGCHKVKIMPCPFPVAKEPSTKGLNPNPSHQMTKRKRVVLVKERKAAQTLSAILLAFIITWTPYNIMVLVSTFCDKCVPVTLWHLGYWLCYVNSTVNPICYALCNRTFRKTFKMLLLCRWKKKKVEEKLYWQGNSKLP
metric.name: IC50

{"compound.structure.string": "O=C(N1CCN2CCC1CC2)n1nc(-c2ccc(F)cc2)c2c1COCC2", "endpoint.value": "10.2 µM"}
{"compound.structure.string": "Cl.O=C(N1CCN2CCC1CC2)n1nc(-n2cc(C(F)(F)F)cn2)c2c1COCC2", "endpoint.value": "10.2 µM"}

Numbers sourced from ChEMBL document CHEMBL5223177.
